Target: T1, human PVRIG on cells (human, UniProt Q6DKI7 1-326)
T1 construct: whole, on cells; over-expressed on HEK cells or endogenous on Jurkat and CD8 T cells; also called hPVRIG; HEK hPVRIG cells
T1 sequence (looked up): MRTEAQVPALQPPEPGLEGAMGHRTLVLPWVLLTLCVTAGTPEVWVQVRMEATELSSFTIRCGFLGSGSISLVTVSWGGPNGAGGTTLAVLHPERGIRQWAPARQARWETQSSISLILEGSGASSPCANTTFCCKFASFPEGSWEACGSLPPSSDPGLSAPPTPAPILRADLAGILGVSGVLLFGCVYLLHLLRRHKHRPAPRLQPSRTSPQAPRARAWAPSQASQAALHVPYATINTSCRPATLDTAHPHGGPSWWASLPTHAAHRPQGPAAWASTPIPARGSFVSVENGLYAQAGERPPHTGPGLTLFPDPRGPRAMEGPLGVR
Assay: FACS, Jurkat cells, relative to control, 3.3ug/ml
Reported gMFIr Jurkat values follow for various binders
Write no unit; give the number alone.

| binder | gMFIr Jurkat |
| --- | --- |
| CHA.7.544 (antibody, V domains shown) VH: QVQLKESGPGLVAPSQSLSITCTVSGFSLTSYAITWVRQPPGKGLEWLGVIWPGGGTNYNSALKSRLSISKDNSKSHLFLKMNSLQTDDTARYYCVRSYDGYLDWYFDVWGTGTTVTVSS VL: NIVMTQSPKSMSMSVGERVTLSCKASENVGTYVSWYQQKPDQSPKLLIYGASNRYTGVPDRFTGSGSATDFTLIISSVQAEDLSDYHCGQSYSYPYTFGGGTKLEII | 5.68 |

Name the recorded gMFIr Jurkat for CHA.7.547 (antibody, V domains shown) VH: QIQLVQSGPDLKKPGETVKISCKASGYTFTTYGMSWVKQAPGRGLKWMGWINTYSGVSTFPDDFKGRFAFSLETSASTAYLQINNLKNEDSATYFCARLGMGSTTGAGYFDVWGTGTTVTVSS VL: ENVLTQSPAIMSASLGEKVTLSCRASSSVNYMYWYQQKSDASPKLWIYYTSNLAPGVPARFSGSGSGNSYSLTISSVEGEDAATYYCQQFTSSPWTFGGGTKLEIK .
1.02

Follow-up entry: CHA.7.546 (antibody, V domains shown) VH: QIQLVQSGPELKKPGETVKISCKASGYTFTTYGMSWVKQAPGKGLKWMGWINTYSGVSTYADDFEGRFAFSLETSVSTAYLQINNLKNEDTATYFCARLGRGSTTGAGYLDVWGTGTTVTVSS VL: DIVLTQSPAIMSASPGEKVSMTCSASSSVSSWYLHWYQQKSGASPKLWIYGTSNLASGVPARFSGSGSGTSYSLTISSVEAEDAATYYCQQYHSDPYTFGSGTKLEIK
6.42

Also CHA.7.550 (antibody, V domains shown) VH: QVQLQESGTELVKPGASVKLSCKASGYTFTSYWIHWVKQRPGQGLEWIGNINPSNGGTNYNEKFKSKAALTVDKSSSTAYMQLSSLTSEDSAVYYCARRGLPYFFDYWGQGTTLTVSS VL: DIVMTQSQKFMSTSVGDRVSVTCKGSQNVGYNVAWYQQKPGQSPKALVYSASDRHSGVPDRFAGSGSGTDFTLTISNVQSEDLAEYFCQQYNSYPLTFGAGTKLELK , if possible.
2.1

Similarly, CHA.7.549 (antibody, V domains shown) VH: QVQLQQPGTELVKPGASVKLSCKASGFTFTTHWMHWVRQRPGQGLEWIGNIYPSNGGSNYNEKFKTKATLTVDRSSSTAYMHLSSLTSEDSAVYYCARRVNWDGYYFDYWGQGTTLTVSS VL: DIVMTQSQKFMSTSVGDRVSVTCKASQNVGTNVAWYQQKPGQSPKLLIYSASYRYSGVPDRFTGSGSGTDFTLTISNVQSEDLADYFCQQYNSYPLTFGGGTKLEIK ?
2.23

Consider next the binder CHA.7.543 (antibody, V domains shown) VH: QVQLKESGPGLVAPSQSLSITCTVSGFSLSGYGIKWVRQPPGKGLEWLGTIWGDGSTDYNSALKSRLSISKDNSKSQVFLKMTSLQTDDTARYYCASDSLGITFGYWGQGTLVTVSA VL: DIQMTQTTSSLSASLGDRVTISCRASQDISNYLNWYQQKPDGTVKLLIYYTSRLHSGVPSRFSGSGSGTDYSLTISNLEQEDIATYFCQQGNTLPLTFGAGTKLELK in the same way.
6.73

What do we get for CHA.7.545 (antibody, V domains shown) VH: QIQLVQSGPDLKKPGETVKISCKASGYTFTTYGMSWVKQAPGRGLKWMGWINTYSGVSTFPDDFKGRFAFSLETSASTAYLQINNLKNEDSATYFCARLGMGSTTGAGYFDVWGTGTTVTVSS VL: DIVLTQSPAIMSASPGEKVTMTCSASSSVSSWYLHWYQQKSGASPKLWIYGTSNLASGVPARFSGSGSGTSYSLTISSVEAEDAATYYCQQYRSDPYTFGSGTKLEIK ?
6.53

CHA.7.548 (antibody, V domains shown) VH: EVQLQQSGPELVKPGASVKISCKASGYTFTDYSMNWVKQSHGKSLEWIGDITPNNGSPNYNQKFKDKATLTVDKSSSTVYMELRSLTSEDSAVYYCASLFFDYWGHGTTLTVSS VL: DIVMTQSPSSLSVSAGEKVTMSCKSSQSLLNSGNQKNYLAWYQQKPGQPPKLLIYGASTRDSGVPDRFTGSGSGTDFTLTITSVQAEDLAVYYCQNDHTYPYTFGGGTKLEIK , same question.
7.37
